Items are presented alongside their recorded MIC.
Test system: Mycobacterium avium subsp. avium ATCC 25291

- query smiles: "CCCOc1ccc(-c2cn(CCN3CCCCCC3)c3ccccc3c2=O)cc1"
  MIC: "< 0.25 µg/mL"
- query smiles: "CN(C)CCCN1c2ccccc2Sc2ccc(Cl)cc21"
  MIC: "< 0.25 µg/mL"
- query smiles: "CCCOc1ccc(-c2cn(CCN3CCCCC3)c3ccccc3c2=O)cc1"
  MIC: "< 0.25 µg/mL"

---

Tested on: Mycobacterium avium
assay conditions: 104 mc'2 3
measurement label: MIC

- compound: "CCCOc1ccc(-c2cn(CCN3CCCCC3)c3ccccc3c2=O)cc1"
  measurement label: "MIC"
  test value: "< 0.125 µg/mL"
- compound: "CSc1ccc2c(c1)N(CCC1CCCCN1C)c1ccccc1S2 (stereo not drawn)"
  measurement label: "MIC"
  test value: "< 0.125 µg/mL"
- compound: "CCCOc1ccc(-c2cn(CCN3CCCCCC3)c3ccccc3c2=O)cc1"
  measurement label: "MIC"
  test value: "< 0.125 µg/mL"

---

Parameter MIC, tested on Mycobacterium avium subsp. avium ATCC 25291, listed per item.

- query smiles: "CCCOc1ccc(-c2cn(CCN3CCCCC3)c3ccccc3c2=O)cc1"
  MIC: "< 0.5 µg/mL"
- query smiles: "CN(C)CCCN1c2ccccc2Sc2ccc(Cl)cc21"
  MIC: "< 0.5 µg/mL"
- query smiles: "CCCOc1ccc(-c2cn(CCN3CCCCCC3)c3ccccc3c2=O)cc1"
  MIC: "< 0.5 µg/mL"
